The origin of these recorded values is ChEMBL document CHEMBL1201862.

- ASSAY TARGET: UniProt:P10635
- Sequence (P10635 whole entry): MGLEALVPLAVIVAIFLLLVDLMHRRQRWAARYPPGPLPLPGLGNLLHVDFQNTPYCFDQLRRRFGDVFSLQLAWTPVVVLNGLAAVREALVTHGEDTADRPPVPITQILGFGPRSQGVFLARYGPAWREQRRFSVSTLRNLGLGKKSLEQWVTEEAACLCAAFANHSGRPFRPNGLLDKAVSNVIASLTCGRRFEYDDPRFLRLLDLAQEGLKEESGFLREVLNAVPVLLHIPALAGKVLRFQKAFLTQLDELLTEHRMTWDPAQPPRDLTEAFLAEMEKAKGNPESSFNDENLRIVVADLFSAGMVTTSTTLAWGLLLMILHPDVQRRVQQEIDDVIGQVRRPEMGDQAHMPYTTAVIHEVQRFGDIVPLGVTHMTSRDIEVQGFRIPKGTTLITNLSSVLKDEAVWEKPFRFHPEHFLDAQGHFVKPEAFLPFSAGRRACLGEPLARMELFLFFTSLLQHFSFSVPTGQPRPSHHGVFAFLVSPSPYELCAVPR

- ITEM SMILES: "C/C(CCN1CCc2nc(-c3ccccc3)c(-c3ccccc3)cc2C1)=N\\O[C@@H](C)CN1CCCc2nc(C)c(C)cc21"
  AC50: "3.16 µM (inconclusive)"
- ITEM SMILES: "CN1CCc2cc3c(cc2[C@@H]1[C@@H]1OC(=O)c2c1ccc1c2OCO1)OCO3"
  AC50: "12.6 µM (inconclusive)"
- ITEM SMILES: "CCCNC1=NC(=O)N(C)C(=O)/C1=N/O"
  AC50: "39.8 µM (inconclusive)"

* * *

- ASSAY TARGET: Calpain-2 catalytic subunit (Sus scrofa, UniProt P43367)
- Sequence (P43367 whole entry): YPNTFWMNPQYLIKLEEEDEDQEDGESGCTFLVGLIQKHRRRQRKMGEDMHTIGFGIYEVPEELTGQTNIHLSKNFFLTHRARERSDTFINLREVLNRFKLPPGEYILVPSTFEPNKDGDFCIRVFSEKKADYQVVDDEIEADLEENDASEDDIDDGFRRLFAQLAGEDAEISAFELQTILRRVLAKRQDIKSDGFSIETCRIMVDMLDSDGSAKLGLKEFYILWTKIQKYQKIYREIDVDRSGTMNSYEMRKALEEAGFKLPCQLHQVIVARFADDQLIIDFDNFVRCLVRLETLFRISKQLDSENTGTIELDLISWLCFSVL
- METHOD NOTES: m-calpain protease blockers, concentration series – biochemical, fluorogenic peptide substrate, dose response (AID 1420)
- Assay type: functional

- COMPOUND: "CCn1nc(C(=O)OCC(=O)N2c3ccccc3CC2C)c2ccccc2c1=O (centres undefined)"
  ASSAY TARGET: "Calpain-2 catalytic subunit (Sus scrofa, UniProt P43367)"
  IC50: "29.2 µM (not active)"
- COMPOUND: "CCOc1cc(C)c(S(=O)(=O)NC2CCCCC2)cc1C"
  ASSAY TARGET: "Calpain-2 catalytic subunit (Sus scrofa, UniProt P43367)"
  IC50: "> 50 µM (not active)"
- COMPOUND: "COc1ccc(N2CCN(c3nc(NC(C)(C)C)nc(N4CCCCC4)n3)CC2)cc1"
  ASSAY TARGET: "Calpain-2 catalytic subunit (Sus scrofa, UniProt P43367)"
  IC50: "24.4 µM (not active)"
- COMPOUND: "CC(C)CCN=C(S)Nc1ccc([N+](=O)[O-])cc1"
  ASSAY TARGET: "Calpain-2 catalytic subunit (Sus scrofa, UniProt P43367)"
  IC50: "> 50 µM (not active)"

* * *

- ASSAY TARGET: Corticotropin-releasing factor receptor 2/Corticotropin-releasing factor-binding protein (Homo sapiens, UniProt P24387+Q13324)
- Sequence (Q13324 whole entry): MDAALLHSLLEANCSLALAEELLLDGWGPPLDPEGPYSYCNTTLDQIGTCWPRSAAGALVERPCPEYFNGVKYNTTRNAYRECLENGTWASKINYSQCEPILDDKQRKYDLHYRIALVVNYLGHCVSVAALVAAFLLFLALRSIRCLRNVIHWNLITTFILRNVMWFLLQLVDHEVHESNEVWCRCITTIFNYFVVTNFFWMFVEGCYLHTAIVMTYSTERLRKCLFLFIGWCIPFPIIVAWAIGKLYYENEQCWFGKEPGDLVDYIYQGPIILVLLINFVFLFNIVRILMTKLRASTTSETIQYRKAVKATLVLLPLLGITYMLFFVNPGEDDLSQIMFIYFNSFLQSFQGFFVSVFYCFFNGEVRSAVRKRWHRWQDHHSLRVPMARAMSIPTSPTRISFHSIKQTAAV
- Sequence (P24387 whole entry): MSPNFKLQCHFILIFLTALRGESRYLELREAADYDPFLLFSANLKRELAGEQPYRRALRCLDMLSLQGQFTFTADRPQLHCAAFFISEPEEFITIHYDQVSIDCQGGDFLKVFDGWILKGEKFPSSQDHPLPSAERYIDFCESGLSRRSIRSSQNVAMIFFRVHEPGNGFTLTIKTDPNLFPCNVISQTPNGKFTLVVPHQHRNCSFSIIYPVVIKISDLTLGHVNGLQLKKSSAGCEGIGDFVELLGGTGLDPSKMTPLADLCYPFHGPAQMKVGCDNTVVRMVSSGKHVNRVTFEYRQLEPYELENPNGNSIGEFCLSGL
- METHOD NOTES: activators of CRF receptor 2 with binding protein – uHTS hits, confirmation (AID 602473)
- Assay type: functional
- ASSAY CONTEXT: read-out: EC50_Mean
Activity calls are given as the source filed them.
Possible outcomes: TRUE = active, FALSE = inactive

- COMPOUND: "CC1CCN(C(=O)C2CCN(S(=O)(=O)c3cccnc3)CC2)CC1"
  ASSIGNED LABEL: "FALSE"
- COMPOUND: "C=CCN1C(c2cccc(C(F)(F)F)c2)=CS/C1=C(/C#N)c1nnc(N2CCOCC2)n1-c1ccccc1"
  ASSIGNED LABEL: "FALSE"
- COMPOUND: "Cc1cc(NC(=O)CN2C(=O)NC(CC(C)C)C2=O)no1 (centres undefined)"
  ASSIGNED LABEL: "FALSE"
- COMPOUND: "O=C1/C(=C\\c2ccc(Br)cc2)SC(=S)N1NS(=O)(=O)c1ccccc1"
  ASSIGNED LABEL: "TRUE"

* * *

- ASSAY TARGET: Estrogen receptor beta (Homo sapiens)
- Sequence (Q92731 whole entry): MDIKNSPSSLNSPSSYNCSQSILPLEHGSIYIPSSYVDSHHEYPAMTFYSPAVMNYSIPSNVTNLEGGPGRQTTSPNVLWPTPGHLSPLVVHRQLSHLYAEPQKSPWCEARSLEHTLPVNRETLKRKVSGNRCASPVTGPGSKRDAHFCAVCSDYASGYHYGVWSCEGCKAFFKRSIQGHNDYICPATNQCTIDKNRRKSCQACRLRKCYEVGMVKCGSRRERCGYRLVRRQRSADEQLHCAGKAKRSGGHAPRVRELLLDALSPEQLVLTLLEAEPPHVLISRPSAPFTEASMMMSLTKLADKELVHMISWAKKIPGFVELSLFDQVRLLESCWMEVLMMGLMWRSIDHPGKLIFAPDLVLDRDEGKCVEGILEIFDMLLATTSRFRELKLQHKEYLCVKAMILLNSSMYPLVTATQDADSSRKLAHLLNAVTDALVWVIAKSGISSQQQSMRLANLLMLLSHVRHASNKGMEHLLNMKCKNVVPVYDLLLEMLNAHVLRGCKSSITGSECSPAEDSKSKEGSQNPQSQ
- METHOD NOTES: blockers of SRC-3 recruitment to ERβ – biochemical, ELISA, streptavidin-HRP readout, orthogonal assay, confirmation (AID 1060)
List of IC50 values.
METRIC NAME: IC50

- COMPOUND: "CCOC(=O)C1CCCN(C(=O)c2cc3ncc(Br)cn3n2)C1 (centres undefined)"
  ASSAY VALUE: "0.0694 µM (not active)"
- COMPOUND: "CCOc1[nH]c(/N=C/c2ccco2)c(C#N)c1C#N"
  ASSAY VALUE: "18.2 µM (not active)"
- COMPOUND: "COc1ccc(NC2=NC(=O)S/C2=C\\c2ccc(N(C)C)cc2)cc1"
  ASSAY VALUE: "85.5 µM (not active)"
- COMPOUND: "COc1ccc(NC(=O)c2cc(-c3ccc(C)o3)nc3ccccc23)cc1OC"
  ASSAY VALUE: "24.7 µM (not active)"

* * *

- ASSAY TARGET: Heat shock factor protein 1 (Mus musculus, UniProt P38532)
- Sequence (P38532 whole entry): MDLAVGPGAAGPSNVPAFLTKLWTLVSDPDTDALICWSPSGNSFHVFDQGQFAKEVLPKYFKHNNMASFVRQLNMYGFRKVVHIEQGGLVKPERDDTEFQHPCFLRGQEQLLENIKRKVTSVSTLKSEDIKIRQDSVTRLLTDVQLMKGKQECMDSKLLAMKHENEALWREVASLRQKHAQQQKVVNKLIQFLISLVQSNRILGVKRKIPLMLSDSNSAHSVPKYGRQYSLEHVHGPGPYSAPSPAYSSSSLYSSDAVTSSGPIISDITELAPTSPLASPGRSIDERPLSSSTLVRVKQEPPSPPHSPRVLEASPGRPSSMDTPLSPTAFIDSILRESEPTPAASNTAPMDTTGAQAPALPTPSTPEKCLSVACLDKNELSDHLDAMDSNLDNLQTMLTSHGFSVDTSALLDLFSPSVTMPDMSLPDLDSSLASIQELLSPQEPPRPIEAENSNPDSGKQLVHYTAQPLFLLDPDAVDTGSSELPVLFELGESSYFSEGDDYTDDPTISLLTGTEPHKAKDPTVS
- METHOD NOTES: enhancement of HSF1-driven luciferase signal – cell-based, NIH3T3, luminescence, dose retest, confirmation (AID 435004);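 further: stress induced by proteasome inhibitor MG132 added 30 min after compound; luciferase reporter driven by HSF1 response element in NIH3T3 cells; actives raise luminescence as potentiators of the MG132 stress response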
- Format: functional
Activity calls are given as the source filed them.
Outcome codes: active, inactive

- COMPOUND: "CC(Oc1ccc(F)cc1Br)c1nc(O)c2ccccc2n1 (stereo not given)"
  ASSIGNED LABEL: "active"
- COMPOUND: "O=C(COC(=O)/C=C/c1ccc(Br)o1)NCCCN1CCCC1=O"
  ASSIGNED LABEL: "inactive"
- COMPOUND: "CCCCN1C(=O)/C(=C/c2c[nH]nc2-c2ccccc2)SC1=S"
  ASSIGNED LABEL: "inactive"
- COMPOUND: "CC(Sc1nnc2ccccn12)C(N)=O (stereo not given)"
  ASSIGNED LABEL: "inactive"

* * *

Consider compounds characterized by their IC50 with Estrogen receptor (Homo sapiens, UniProt P03372).
Sequence (P03372 whole entry): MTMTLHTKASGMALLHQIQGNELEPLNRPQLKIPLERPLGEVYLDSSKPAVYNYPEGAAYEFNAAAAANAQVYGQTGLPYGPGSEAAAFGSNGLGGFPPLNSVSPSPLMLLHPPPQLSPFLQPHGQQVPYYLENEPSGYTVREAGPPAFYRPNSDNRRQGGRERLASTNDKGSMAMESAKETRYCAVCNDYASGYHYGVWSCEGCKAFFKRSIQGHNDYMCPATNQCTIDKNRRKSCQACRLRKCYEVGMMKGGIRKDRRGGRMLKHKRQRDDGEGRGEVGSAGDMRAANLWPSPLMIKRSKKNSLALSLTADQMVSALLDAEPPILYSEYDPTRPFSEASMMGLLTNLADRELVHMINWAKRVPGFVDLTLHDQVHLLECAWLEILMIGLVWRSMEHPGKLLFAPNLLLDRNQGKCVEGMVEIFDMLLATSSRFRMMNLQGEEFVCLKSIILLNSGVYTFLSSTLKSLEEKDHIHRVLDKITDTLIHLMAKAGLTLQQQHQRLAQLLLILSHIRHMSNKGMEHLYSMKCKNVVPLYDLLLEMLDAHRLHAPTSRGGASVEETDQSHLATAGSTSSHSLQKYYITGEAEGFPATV
Active and inactive are the calls of the source.

- COMPOUND: "CCOc1ccc(NC(=O)c2cc3cc4ccc(OC)cc4nc3o2)cc1"
  ASSAY TARGET: "Estrogen receptor (Homo sapiens, UniProt P03372)"
  IC50: "47.3 µM (not active)"
- COMPOUND: "O=C(Cn1c(=O)n(Cc2ccco2)c(=O)c2c3c(sc21)CCCCC3)Nc1ccccc1"
  ASSAY TARGET: "Estrogen receptor (Homo sapiens, UniProt P03372)"
  IC50: "7.24 µM (active)"
- COMPOUND: "Cc1ccc(CNc2nc3ccccc3n3nnnc23)cc1"
  ASSAY TARGET: "Estrogen receptor (Homo sapiens, UniProt P03372)"
  IC50: "> 50 µM (not active)"
- COMPOUND: "O=C(Nc1ccc(N2CCCC2)cc1)C(Cl)c1ccccc1 (centres undefined)"
  ASSAY TARGET: "Estrogen receptor (Homo sapiens, UniProt P03372)"
  IC50: "> 50 µM (not active)"
